- System: Rattus norvegicus
- procedure_text: Mean excretion of Cl- in conscious rats at a dose of 0.3 mg/kg given orally
- Assay type: ADME, organism-based, Urine
- Parameters: dose 0.3 mg/kg, route oral
- cond: in vivo, po
This listing pairs compounds with measured Mean excretion of Cl-.
recorded_endpoint: Mean excretion of Cl- (m equiv)

In [3]: df
Out[3]:
                                   compound      recorded_endpoint  meas_value
0  COc1ccccc1C(CN(C)C)c1nnc2n1-c1ccc(Cl)cc1C(c1ccccc1)=NC2 (stereo not drawn)  Mean excretion of Cl-        0.69
1          Nc1nc(N)c2nc(-c3ccccc3)c(N)nc2n1  Mean excretion of Cl-        0.47
2  COc1cccc(C(CN(C)C)c2nnc3n2-c2ccc(Cl)cc2C(c2ccccc2)=NC3)c1 (stereo not drawn)  Mean excretion of Cl-        0.59
